assayed_system: Cathepsin K (Homo sapiens, UniProt P43235)
Sequence (P43235 115-329, species assumed): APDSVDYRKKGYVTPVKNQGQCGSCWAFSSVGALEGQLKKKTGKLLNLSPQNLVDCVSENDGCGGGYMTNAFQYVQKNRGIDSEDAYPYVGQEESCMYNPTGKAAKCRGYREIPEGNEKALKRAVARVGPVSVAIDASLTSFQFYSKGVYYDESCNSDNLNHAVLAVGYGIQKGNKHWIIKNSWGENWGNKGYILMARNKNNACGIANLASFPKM
protocol_summary: Cathepsin K inhibition assay (fluorogenic peptide substrate); selectivity ratio vs cathepsin S
Type: biochemical
details: ratio of cathepsin K inhibition constant to cathepsin S inhibition constant; Table II
attribute_measured: Selectivity for Cat. S over Cat. K

[
  {
    "molecule": "COc1ccc(NCCNC(=O)[C@H](CC2CCCCC2)NC(=O)c2ccc(F)c(C)c2)cc1 [Compound 167]",
    "endpoint_value": "+++ (+++, >1000)"
  },
  {
    "molecule": "O=C(N[C@@H](CC1CCCCC1)C(=O)NCCNc1ccc(OC(F)(F)F)cc1)c1cccc(-c2ccccc2Cl)c1 [Compound 34]",
    "endpoint_value": "+++ (+++, >1000)"
  },
  {
    "molecule": "COc1ccc(NCCNC(=O)C(NC(=O)c2cccc(C)c2)c2ccccc2Cl)cc1 (stereo not drawn) [Compound 216]",
    "endpoint_value": "+++ (+++, >1000)"
  },
  {
    "molecule": "COc1ccc(NCCNC(=O)[C@H](CC2CCCCC2)NC(=O)c2ccc(OCc3ccccc3)cc2)cc1 [Compound 109]",
    "endpoint_value": "+++ (+++, >1000)"
  },
  {
    "molecule": "COc1ccc(NCCNC(=O)[C@H](Cc2cc(F)cc(F)c2)NC(=O)c2cccc(C)c2)cc1 [Compound 230]",
    "endpoint_value": "+++ (+++, >1000)"
  },
  {
    "molecule": "COc1ccc(NCCNC(=O)[C@H](CCC2CCCCC2)NC(=O)c2ccc(-n3cncn3)cc2)cc1 [Compound 143]",
    "endpoint_value": "++ (++, >100)"
  },
  {
    "molecule": "COc1ccc(NCCNC(=O)[C@H](CCC2CCCCC2)NC(=O)c2ccc(C#N)cc2)cc1 [Compound 140]",
    "endpoint_value": "+++ (+++, >1000)"
  },
  {
    "molecule": "O=C(N[C@@H](CC1CCCCC1)C(=O)NCCNc1ccc(OC(F)(F)F)cc1)c1ccc(-c2cccc(F)c2)o1 [Compound 31]",
    "endpoint_value": "+ (+, >10)"
  }
]

Data request: Param readout= Selectivity for Cat. S over Cat. K; system= Cathepsin K (Homo sapiens, UniProt P43235); entry= COc1ccc(NCCNC(=O)[C@H](Cc2ccccc2)NC(=O)Nc2cccc(OC)c2)cc1 [Compound 104] ; returns value.
Data returned: + (+, >10)

Data request: Param readout= Selectivity for Cat. S over Cat. K; system= Cathepsin K (Homo sapiens, UniProt P43235); entry= O=C(Cn1cnnn1)N[C@@H](CC1CCCCC1)C(=O)NCCNc1ccc(F)cc1 [Compound 265] ; returns value.
Data returned: ++ (++, >100)

Data request: Param readout= Selectivity for Cat. S over Cat. K; system= Cathepsin K (Homo sapiens, UniProt P43235); entry= COc1ccc(NCCNC(=O)[C@H](Cc2ccc([N+](=O)[O-])cc2)NC(=O)c2cccc(C)c2)cc1 [Compound 244] ; returns value.
Data returned: +++ (+++, >1000)

Data request: Param readout= Selectivity for Cat. S over Cat. K; system= Cathepsin K (Homo sapiens, UniProt P43235); entry= COc1ccc(NCCNC(=O)[C@H](Cc2ccccc2)NC(=O)Nc2ccc3c(c2)OCO3)cc1 [Compound 94] ; returns value.
Data returned: + (+, >10)

Data request: Param readout= Selectivity for Cat. S over Cat. K; system= Cathepsin K (Homo sapiens, UniProt P43235); entry= COc1ccc(NCCNC(=O)[C@H](Cc2ccccc2Cl)NC(=O)c2ccc(-c3cccc(C(F)(F)F)c3)o2)cc1 [Compound 2] ; returns value.
Data returned: + (+, >10)

Data request: Param readout= Selectivity for Cat. S over Cat. K; system= Cathepsin K (Homo sapiens, UniProt P43235); entry= CS(=O)(=O)c1ccc(C(=O)N[C@@H](CC2CCCCC2)C(=O)NCCNc2ccc(OC(F)(F)F)cc2)s1 [Compound 53] ; returns value.
Data returned: +++ (+++, >1000)

Data request: Param readout= Selectivity for Cat. S over Cat. K; system= Cathepsin K (Homo sapiens, UniProt P43235); entry= COc1ccc(NCCNC(=O)C(NC(=O)c2cccc(C)c2)c2ccc(Cl)cc2)cc1 (racemic) [Compound 8] ; returns value.
Data returned: +++ (+++, >1000)
